Data provenance: ChEMBL document CHEMBL5390247

Listing of entries alongside the reported Activity.
Test system: HT-29
Experiment: Antiproliferative activity against human HT-29 cells assessed as relative VEGFR-2 protein expression in whole cell at 100 uM incubated for 48 hrs by flow cytometry analysis relative to control
Assay type: functional
QUANTITY KIND: Activity (%)

In [3]: df
Out[3]:
                               smiles_entry  unit_descriptor  modifier_sign  result_number
0  O=[N+]([O-])c1cccc(-c2nnn(Cc3cccc(Br)c3)n2)c1                %              =             60
1         Cc1cccc(Cn2nnc(-c3cccc(N)c3)n2)c1                %              >            100
2  COc1ccc(Cn2nnc(-c3cccc([N+](=O)[O-])c3)n2)cc1                %              =             39
3          Nc1cccc(-c2nnn(Cc3ccccc3Cl)n2)c1                %              =             92
4        Nc1cccc(-c2nnn(Cc3ccc(Cl)cc3)n2)c1                %              =             96
5  O=[N+]([O-])c1cccc(-c2nnn(Cc3ccccc3Cl)n2)c1                %              =             53
